Tested on: HAB1
Assay: Yeast two hybrid of pBD-PYR1 site saturation mutants with pACT-HAB1 on 10 μM ABA, β-galactosidase staining
Format: cell-based, Arabidopsis
Set-up: key: x: Mutations in PYR1 that disrupt ABA-induced binding to PYR1 to HAB1
Conditions: S. cerevisiae Y190, 10 μM ABA; dead = lack of visible staining in comparison to wild type control
readout-name: Mutations in PYR1 that disrupt ABA-induced binding to PYR1 to HAB1

P148F: PYR1 mutant (protein, UniProt O49686 1-191, looked up, variant P148F) Abscisic acid receptor PYR1: MPSELTPEERSELKNSIAEFHTYQLDPGSCSSLHAQRIHAPPELVWSIVRRFDKPQTYKHFIKSCSVEQNFEMRVGCTRDVIVISGLPANTSTERLDILDDERRVTGFSIIGGEHRLTNYKSVTTVHRFEKENRIWTVVLESYVVDMFEGNSEDDTRMFADTVVKLNLQKLATVAEAMARNSGDGSGSQVT ... x
R116I: PYR1 mutant (protein, UniProt O49686 1-191, looked up, variant R116I) Abscisic acid receptor PYR1: MPSELTPEERSELKNSIAEFHTYQLDPGSCSSLHAQRIHAPPELVWSIVRRFDKPQTYKHFIKSCSVEQNFEMRVGCTRDVIVISGLPANTSTERLDILDDERRVTGFSIIGGEHILTNYKSVTTVHRFEKENRIWTVVLESYVVDMPEGNSEDDTRMFADTVVKLNLQKLATVAEAMARNSGDGSGSQVT ... x
A89T: PYR1 mutant (protein, UniProt O49686 1-191, looked up, variant A89T) Abscisic acid receptor PYR1: MPSELTPEERSELKNSIAEFHTYQLDPGSCSSLHAQRIHAPPELVWSIVRRFDKPQTYKHFIKSCSVEQNFEMRVGCTRDVIVISGLPTNTSTERLDILDDERRVTGFSIIGGEHRLTNYKSVTTVHRFEKENRIWTVVLESYVVDMPEGNSEDDTRMFADTVVKLNLQKLATVAEAMARNSGDGSGSQVT ... x

Source of measurements: patent US10919943B2
